- METHOD_DESCRIPTION: activity coefficient (dimensionless); of the first substance listed, at infinite dilution; xn = mol fraction of the nth substance listed
- ASSAY_CONDITIONS: 368.15 K; 101.33 kPa; Liquid; Chromatography; x1 = 0
Measured activity coefficient of individual entries
Just the number.

Use the examples below as a reference point.
COMPOUND: CCCCO [butan-1-ol] + C[n+]1ccn(CCCO)c1.N#CN=C=[N-]
activity coefficient: 2.68
--
COMPOUND: C1CCOC1 [tetrahydrofuran] + C[N+]1(CCCO)CCOCC1.N#C[N-]C#N
activity coefficient: 4.83
--
COMPOUND: Cc1ccccc1 [toluene] + C[N+]1(CCCO)CCOCC1.N#C[N-]C#N
activity coefficient: 13.7

Request: Which activity coefficient is listed for CCCO [propan-1-ol] + C[N+]1(CCCO)CCOCC1.N#C[N-]C#N ?
Result: 2.46

Request: Record: CCCC=O [butanal] + C[N+]1(CCCO)CCOCC1.N#C[N-]C#N
Result: 5.38

Request: Now try CCC(C)(C)OC [2-methoxy-2-methylbutane] + C[n+]1ccn(CCCO)c1.N#CN=C=[N-] .
Result: 38.1

Request: One more compound: CC(C)=O [acetone] + C[n+]1ccn(CCCO)c1.N#CN=C=[N-]
Result: 2.19

Request: Follow-up entry: CO [methanol] + C[n+]1ccn(CCCO)c1.N#CN=C=[N-]
Result: 0.69

Request: Queued: C=C(C)c1ccccc1 [(1-methylethenyl)benzene] + C[n+]1ccn(CCCO)c1.N#CN=C=[N-]
Result: 13.3

Request: Follow-up item: CCCC(=O)OC [methyl butanoate] + C[n+]1ccn(CCCO)c1.N#CN=C=[N-]
Result: 10.6

Request: // next record c1ccsc1 [thiophene] + C[n+]1ccn(CCCO)c1.N#CN=C=[N-]
Result: 3.07

The reported measurements were obtained from the NIST ThermoML archive (doi:10.1016/j.jct.2017.11.017).
